molecular target: TMPRSS4 serine protease (Homo sapiens, UniProt Q9NRS4); construct: TMPRSS4 serine protease domain (205th Val˜437th Leu) was cloned in pET21b/NdeI-XhoI; inferred from pET21b XhoI cloning and Ni-NTA purification) (C); made in house; host or cells: E. coli BL21 (DE3); test: Inhibitory effect on TMPRSS4 serine protease activity using peptide substrate; type: biochemical; settings: 10 uM compound; kallikrein peptide substrate 100 μM; DMSO negative control
Sequence (Q9NRS4 205-437): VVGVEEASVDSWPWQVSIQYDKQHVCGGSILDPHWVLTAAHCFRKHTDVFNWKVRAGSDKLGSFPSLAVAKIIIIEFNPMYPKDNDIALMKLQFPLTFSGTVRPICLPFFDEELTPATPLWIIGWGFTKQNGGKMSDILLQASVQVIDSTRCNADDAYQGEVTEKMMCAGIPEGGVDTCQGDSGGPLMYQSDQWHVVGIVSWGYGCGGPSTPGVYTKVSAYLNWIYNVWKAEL
Property measured: Intracellular protease activity Inhibition % 10 uM (%)

{"Compound": "O=C(Nc1cc(C(F)(F)F)ccc1F)c1cc(Cl)ccc1O", "Test system": "TMPRSS4 serine protease (Homo sapiens, UniProt Q9NRS4)", "Uom": "%", "Reading": 67}
{"Compound": "COc1cc(NC(=O)c2cc(Cl)ccc2O)cc(C(F)(F)F)c1", "Test system": "TMPRSS4 serine protease (Homo sapiens, UniProt Q9NRS4)", "Uom": "%", "Reading": 67}
{"Compound": "O=C(Nc1cc(C(F)(F)F)cc(C(F)(F)F)c1)c1cc(Br)ccc1O", "Test system": "TMPRSS4 serine protease (Homo sapiens, UniProt Q9NRS4)", "Uom": "%", "Reading": 54}
{"Compound": "O=C(Nc1cc(C(F)(F)F)c(Br)c(C(F)(F)F)c1)c1cc(Cl)ccc1O", "Test system": "TMPRSS4 serine protease (Homo sapiens, UniProt Q9NRS4)", "Uom": "%", "Reading": 58}

[P] O=C(Nc1cc(C(F)(F)F)cc(C(F)(F)F)c1)c1cccc(Cl)c1O
[Q] O=C(Nc1ccc(Br)c(C(F)(F)F)c1)c1cc(Cl)ccc1O [Example 63]
Between P and Q , whose recorded Intracellular protease activity Inhibition % 10 uM is greater? Identify your selection by its label.
P
(P: 61%, Q: 30%)
